# SUBJECT OF TEST: MELK (Homo sapiens, UniProt Q14680)
# Construct: purchased Reaction Biology Corporation
# Sequence (Q14680 whole entry): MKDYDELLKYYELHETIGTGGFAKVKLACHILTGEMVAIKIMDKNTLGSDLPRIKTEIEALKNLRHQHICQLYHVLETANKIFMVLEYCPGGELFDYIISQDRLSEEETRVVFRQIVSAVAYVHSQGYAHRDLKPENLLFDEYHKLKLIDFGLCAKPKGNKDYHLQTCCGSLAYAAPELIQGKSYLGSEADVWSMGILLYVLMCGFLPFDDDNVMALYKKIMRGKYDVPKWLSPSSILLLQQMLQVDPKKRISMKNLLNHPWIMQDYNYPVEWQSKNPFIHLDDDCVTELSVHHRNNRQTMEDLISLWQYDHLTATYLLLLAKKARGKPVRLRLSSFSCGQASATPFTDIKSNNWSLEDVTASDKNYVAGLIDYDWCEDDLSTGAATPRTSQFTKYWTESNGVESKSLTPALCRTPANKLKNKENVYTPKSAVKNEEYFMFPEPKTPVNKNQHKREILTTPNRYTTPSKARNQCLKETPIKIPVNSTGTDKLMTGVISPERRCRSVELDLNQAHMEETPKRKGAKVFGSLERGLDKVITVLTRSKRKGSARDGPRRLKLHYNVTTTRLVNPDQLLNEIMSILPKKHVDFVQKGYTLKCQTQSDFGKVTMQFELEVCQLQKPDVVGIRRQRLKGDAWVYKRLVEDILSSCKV
# ASSAY: HotSpot kinase assay, MELK
# Type: biochemical
# CONDITION: HotSpot radiometric 33P ATP assay, 25° C., 120 min
REPORTED ENDPOINT: IC50

Below are 3 compounds. Give each one its IC50.
1. COc1ccccc1-n1cc(-c2ncncc2OC[C@H]2CC[C@@H](N)CC2)cn1 [Compound I-5]
2. Fc1cccc(F)c1-n1cc(-c2ncncc2OCC2CCNCC2)cn1 [Compound I-30]
3. CN1CCN(c2ccc(-n3cc(-c4ncncc4OC[C@H]4CC[C@@H](N)CC4)cn3)cc2)CC1 [Compound I-32]

["< 200 nM", "200 to 1000 nM", "< 200 nM"]
